Target entity: T1, 4H2991-AA
T1 chain: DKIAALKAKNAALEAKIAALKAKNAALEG
Experiment summary: two-hybrid library CCmax;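 note: natural log of median RNA to DNA barcode read ratio; higher means stronger binding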
Conditions used: mean of both orientations
Recorded endpoint: interaction score

[
  {
    "Binder": "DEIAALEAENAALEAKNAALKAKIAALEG [4H189-AA]",
    "Recorded endpoint": "interaction score",
    "Assay result": -1.76
  },
  {
    "Binder": "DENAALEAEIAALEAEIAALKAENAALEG [4H1035-AA]",
    "Recorded endpoint": "interaction score",
    "Assay result": -1.12
  },
  {
    "Binder": "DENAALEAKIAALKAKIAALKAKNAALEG [4H1391-AA]",
    "Recorded endpoint": "interaction score",
    "Assay result": -2.12
  },
  {
    "Binder": "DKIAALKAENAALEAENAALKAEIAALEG [4H2713-AA]",
    "Recorded endpoint": "interaction score",
    "Assay result": -1.79
  }
]

# credit: paper PMC10397247
